Test system: MDA-MB-435 melanoma
protocol.notes: NCI-60 one-dose screen, 48 h
settings: 10 µM unless noted
About 83,000 compounds went through this panel and 20% of them were active in at least one assay; those are over-represented in the sample as a whole. The source made the active and inactive calls. Rule for the calls: active = growth percent below 10; inactive = the rest.
Please state which outcome applies, choosing from active, inactive

# example entries with known answers
compound | class.label
FC(F)(F)c1ccc(-c2cn3nc(-c4c[nH]c5ccc(Br)cc45)sc3n2)cc1 | inactive
O=C1/C(=C/c2ccccc2)SC(=S)N1CCc1ccc(O)cc1 | inactive
COc1cc2c(cc1-c1c(C)noc1C)ncc1nc(C3CCOCC3)n([C@H](C)COC(F)F)c12 | inactive
COc1ccc(-n2nc(C)c3c(Nc4ccc(NC(=O)Nc5cc(C(F)(F)F)ccc5F)cc4)ncnc32)cc1 | inactive
COc1cc2c(cc1OC)C(Sc1ccc(SC)cc1)c1c(nc(N)c(C#N)c1N)O2 (centres undefined) | active

Hello, I am checking results. What call was entered for Cc1nn(-c2ccc(F)cc2)c2ncnc(Oc3ccc(NC(=O)Nc4ccc(Cl)c(C(F)(F)F)c4)cc3)c12 ? inactive

Next: CC[C@]1(O)C[C@@H]2CN(CCc3c([nH]c4ccccc34)[C@@](C(=O)OC)(c3cc4c(cc3OC)N(C)[C@H]3[C@@](O)(C(N)=O)[C@H](O)[C@]5(CC)[C@@H]6C[C@@H]6CN6CC[C@]43[C@@H]65)C2)C1 active

Next: CC(C)CSc1nc(N)nc2c1ncn2C1OC(CO)C(O)C1O (centres undefined) inactive

Next: C=C1C(=O)O[C@H]2[C@H]1CC/C(COC(=O)NCCc1ccc(OC)c(OC)c1)=C\CC[C@@]1(C)O[C@@H]21 inactive

Next: C#Cc1cccc(NC(=O)c2ccccc2NC(=O)C=C)c1 inactive

Just for reference, PubChem BioAssay (NCI) is where these values come from.
